study.system: Tyrosyl-tRNA synthetase, putative (Trypanosoma cruzi (strain CL Brener)) (UniProt Q4DSP6)
Sequence (Q4DSP6 as listed by the source): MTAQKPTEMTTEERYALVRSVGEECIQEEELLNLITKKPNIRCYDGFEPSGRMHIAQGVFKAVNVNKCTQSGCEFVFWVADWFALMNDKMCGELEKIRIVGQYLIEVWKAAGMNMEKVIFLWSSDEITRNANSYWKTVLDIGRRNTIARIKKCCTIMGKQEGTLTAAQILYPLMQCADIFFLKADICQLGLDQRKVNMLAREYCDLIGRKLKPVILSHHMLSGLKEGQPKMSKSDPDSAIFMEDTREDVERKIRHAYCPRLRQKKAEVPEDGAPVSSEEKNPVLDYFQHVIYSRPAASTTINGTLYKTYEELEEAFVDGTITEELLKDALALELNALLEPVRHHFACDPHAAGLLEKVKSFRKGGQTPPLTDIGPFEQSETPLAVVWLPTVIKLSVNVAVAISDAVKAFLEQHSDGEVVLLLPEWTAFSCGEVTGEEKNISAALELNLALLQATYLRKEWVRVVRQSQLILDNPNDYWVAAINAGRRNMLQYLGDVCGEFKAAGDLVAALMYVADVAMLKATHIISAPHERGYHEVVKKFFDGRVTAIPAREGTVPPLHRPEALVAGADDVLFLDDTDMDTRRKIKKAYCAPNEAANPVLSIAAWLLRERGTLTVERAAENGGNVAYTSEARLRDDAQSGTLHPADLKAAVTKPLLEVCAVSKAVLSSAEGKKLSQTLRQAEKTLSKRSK
assay.explanation: Trypanosoma cruzi tyrosyl tRNA synthetase (TcYRS) _High Tyrosine SOP
Assay type: functional
Set-up: scale not given: in the data most compounds retested in dose-response had high values
cond: 30 µM

molecule	Percent Effect [%]
CC(C)n1cc(S(=O)(=O)N2CCCCC2)cn1	6.35
CCCC(NC(=O)c1cc(C)ccc1C)c1nnn[nH]1 (centres undefined)	6.01
CNC(=O)c1nc2c(s1)CCN(C(=O)Cc1ccc(OC)cc1)CC2	4.32
CC(O)CN1CCN(C(=O)c2ccc(N(C)C)nc2)CC1 (centres undefined)	7.77
c1ccc(-c2nc(CN3CCCC3Cn3cncn3)cs2)cc1 (centres undefined)	4.43
CSCCCN1CCn2nc(CNC(C)=O)cc2C1	-1.07
O=C(CN1CCCCC1Cn1cncn1)NCCc1ccc(F)cc1 (centres undefined)	8.37
Cc1ccc(C(=O)N2CCC(Oc3ccc(F)cc3F)CC2)c(=O)[nH]1	0.49
CC(=O)Nc1nc(C(=O)NC(C)c2ccc(F)cc2)cs1 (centres undefined)	8.57
CN(CC1CCCCO1)C(=O)c1ccnc(OC2CCC2)c1 (centres undefined)	-1.59
CS(=O)(=O)CC(=O)N1C[C@H]2CCC[C@@]2(COCc2ccccn2)C1	0
O=C(c1cccc(=O)[nH]1)N(Cc1ccsc1)CC1CCCO1 (centres undefined)	7.94
Cc1cc(CN2CCN(C(=O)CCc3cccc(F)c3F)CC2)on1	-0.529
O=C(NC[C@]12COC[C@H]1CN(Cc1nccs1)C2)N1CCCC1	2.12
Cc1cc(F)ccc1OC1(C(=O)O)CCN(Cc2cccnc2N)CC1	6.01
Cn1nc2c(cc1=O)CN(CCc1nc3ccccc3c(=O)[nH]1)CC2	-1.07
Cc1nc(C2CCCN2Cc2nnc(C3CC3)o2)no1 (centres undefined)	9.9
CCN(CC1CCOC1)C(=O)c1ccccc1NS(=O)(=O)CC (centres undefined)	7.39
CC1(NC(=O)Cc2csc(C(C)(C)C)n2)CCS(=O)(=O)C1 (centres undefined)	4.3
Cc1nnn2c1COCC(CNC(=O)c1ccc3[nH]ccc3c1)C2 (centres undefined)	6.45
Cc1cnn(CC2CCCCN2C(=O)c2ccnc(N(C)C)c2)c1 (centres undefined)	2.86
Cc1cc2n(n1)CC(CNC1CCN(Cc3ccccc3C)CC1)CN2 (centres undefined)	4.3
CO[C@H]1CN(C(=O)c2ccccn2)[C@@H]2CCCO[C@H]12	0
CN(C)CCN(Cc1cccc(C(F)(F)F)c1)C(=O)c1cc[nH]n1	-3.16
